species on record: Homo sapiens; experiment: Compound was tested for inhibition of phorbol-induced superoxide generation in human neutrophils after 1 hr pre-incubation at 4 degree C using neutrophil assay; value ranges from 2.8-10; assay type: functional
assayMetric: IC50

stdin: Which IC50 reading was recorded for the molecule CC(C)(C)C(=O)OCOC(=O)c1cccc(O)c1C(=O)c1c(O)cc(C(=O)O[C@@H]2CNC[C@H]2NC(=O)c2ccc(O)cc2)cc1O ?
stdout: > 2800 nM

* * *

molecular target: Protein kinase C beta type (Homo sapiens, UniProt P05771); assay: Inhibition of Protein kinase C beta 2 expressed in Sf-9 cells
Sequence (P05771 whole entry): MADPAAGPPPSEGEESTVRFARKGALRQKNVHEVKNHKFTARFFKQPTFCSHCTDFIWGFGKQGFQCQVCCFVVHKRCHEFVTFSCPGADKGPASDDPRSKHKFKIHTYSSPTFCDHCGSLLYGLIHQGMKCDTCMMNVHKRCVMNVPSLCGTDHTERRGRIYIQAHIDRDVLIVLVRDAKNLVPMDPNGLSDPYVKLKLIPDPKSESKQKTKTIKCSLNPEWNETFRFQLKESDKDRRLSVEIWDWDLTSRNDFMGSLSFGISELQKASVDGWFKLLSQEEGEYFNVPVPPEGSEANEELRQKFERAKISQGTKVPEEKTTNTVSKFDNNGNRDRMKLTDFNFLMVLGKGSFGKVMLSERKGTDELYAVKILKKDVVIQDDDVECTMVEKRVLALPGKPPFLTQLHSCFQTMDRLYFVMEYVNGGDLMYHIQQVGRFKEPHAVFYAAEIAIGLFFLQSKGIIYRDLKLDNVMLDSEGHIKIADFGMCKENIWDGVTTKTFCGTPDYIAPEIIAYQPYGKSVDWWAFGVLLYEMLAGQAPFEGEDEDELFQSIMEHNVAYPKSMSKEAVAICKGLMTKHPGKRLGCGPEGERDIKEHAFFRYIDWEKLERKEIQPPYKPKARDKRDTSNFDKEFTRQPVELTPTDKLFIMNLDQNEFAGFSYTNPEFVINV
assayMetric: pIC50
By convention, pIC50 is the negative base-10 log of a molar concentration.

Below, each entry is followed by its recorded pIC50 result.
stdin: Which pIC50 reading was recorded for the molecule COC(=O)c1cccc(O)c1C(=O)c1c(O)cc(C(=O)O[C@@H]2CNC[C@H]2NC(=O)c2ccc(O)cc2)cc1O ?
stdout: 6.54

stdin: Which pIC50 reading was recorded for the molecule CC(=O)OCOC(=O)c1cccc(O)c1C(=O)c1c(O)cc(C(=O)O[C@@H]2CNC[C@H]2NC(=O)c2ccc(O)cc2)cc1O ?
stdout: 7.70

stdin: Which pIC50 reading was recorded for the molecule COC(=O)c1cccc(O)c1C(=O)c1c(O)cc(C(=O)O[C@@H]2CCC[C@H]2NC(=O)c2ccc(O)cc2)cc1O (stereo in doubt; 8 (-)) ?
stdout: 7.40

stdin: Which pIC50 reading was recorded for the molecule CC(C)(C)C(=O)OCOC(=O)c1cccc(O)c1C(=O)c1c(O)cc(C(=O)O[C@@H]2CNC[C@H]2NC(=O)c2ccc(O)cc2)cc1O ?
stdout: 7.70

stdin: Which pIC50 reading was recorded for the molecule COC(=O)c1cccc(O)c1C(=O)c1c(O)cc(C(=O)O[C@@H]2CCC[C@H]2NC(=O)c2ccc(O)cc2)cc1O (stereo in doubt; 8 (+)) ?
stdout: 5.74

stdin: Which pIC50 reading was recorded for the molecule O=C(N[C@@H]1CNC[C@H]1OC(=O)c1cc(O)c(C(=O)c2c(O)cccc2C(=O)OCC2CCCCC2)c(O)c1)c1ccc(O)cc1 ?
stdout: 4.66

stdin: Which pIC50 reading was recorded for the molecule CCOC(=O)c1cccc(O)c1C(=O)c1c(O)cc(C(=O)O[C@@H]2CNC[C@H]2NC(=O)c2ccc(O)cc2)cc1O ?
stdout: 6.00

stdin: Which pIC50 reading was recorded for the molecule CC(C)COC(=O)c1cccc(O)c1C(=O)c1c(O)cc(C(=O)O[C@@H]2CNC[C@H]2NC(=O)c2ccc(O)cc2)cc1O ?
stdout: 4.70

stdin: Which pIC50 reading was recorded for the molecule CCCCOC(=O)c1cccc(O)c1C(=O)c1c(O)cc(C(=O)O[C@@H]2CNC[C@H]2NC(=O)c2ccc(O)cc2)cc1O ?
stdout: 5.66

stdin: Which pIC50 reading was recorded for the molecule CC(C)OC(=O)c1cccc(O)c1C(=O)c1c(O)cc(C(=O)O[C@@H]2CCC[C@H]2NC(=O)c2ccc(O)cc2)cc1O ?
stdout: 6.36

Next:
stdin: Which pIC50 reading was recorded for the molecule CCOC(=O)c1cccc(O)c1C(=O)c1c(O)cc(C(=O)O[C@@H]2CCC[C@H]2NC(=O)c2ccc(O)cc2)cc1O ?
stdout: 5.80

stdin: Which pIC50 reading was recorded for the molecule COC(=O)c1cccc(O)c1C(=O)c1c(O)cc(C(=O)O[C@@H]2CCC[C@H]2NC(=O)c2ccc(O)cc2)cc1O (racemic) ?
stdout: 6.48

* * *

Recorded pIC50, one value per entry.
species: Homo sapiens; experiment: Compound was tested for inhibition of phorbol-induced superoxide generation in human neutrophils using neutrophil assay; assay type: functional; settings: Homo sapiens
pIC50: −log10 of the molar value.

stdin: Which pIC50 reading was recorded for the compound O=C(N[C@@H]1CNC[C@H]1OC(=O)c1cc(O)c(C(=O)c2c(O)cccc2C(=O)O)c(O)c1)c1ccc(O)cc1 ?
stdout: < 4.30

stdin: Which pIC50 reading was recorded for the compound CCCCOC(=O)c1cccc(O)c1C(=O)c1c(O)cc(C(=O)O[C@@H]2CNC[C@H]2NC(=O)c2ccc(O)cc2)cc1O ?
stdout: < 5.00

Next:
stdin: Which pIC50 reading was recorded for the compound O=C(N[C@@H]1CNC[C@H]1OC(=O)c1cc(O)c(C(=O)c2c(O)cccc2C(=O)OCC2CCCCC2)c(O)c1)c1ccc(O)cc1 ?
stdout: < 5.00

stdin: Which pIC50 reading was recorded for the compound COC(=O)c1cccc(O)c1C(=O)c1c(O)cc(C(=O)O[C@@H]2CNC[C@H]2NC(=O)c2ccc(O)cc2)cc1O ?
stdout: < 4.30

stdin: Which pIC50 reading was recorded for the compound CCOC(=O)c1cccc(O)c1C(=O)c1c(O)cc(C(=O)O[C@@H]2CCC[C@H]2NC(=O)c2ccc(O)cc2)cc1O ?
stdout: < 5.59
